TARGET_OR_SYSTEM: hKOR (OPRK1) (Homo sapiens);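 also: 100% = maximum response to 10 µM U69,593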
Construct: 3HA (triple haemagglutinin tag); expressed in transfected cells
Sequence (P41145 whole entry): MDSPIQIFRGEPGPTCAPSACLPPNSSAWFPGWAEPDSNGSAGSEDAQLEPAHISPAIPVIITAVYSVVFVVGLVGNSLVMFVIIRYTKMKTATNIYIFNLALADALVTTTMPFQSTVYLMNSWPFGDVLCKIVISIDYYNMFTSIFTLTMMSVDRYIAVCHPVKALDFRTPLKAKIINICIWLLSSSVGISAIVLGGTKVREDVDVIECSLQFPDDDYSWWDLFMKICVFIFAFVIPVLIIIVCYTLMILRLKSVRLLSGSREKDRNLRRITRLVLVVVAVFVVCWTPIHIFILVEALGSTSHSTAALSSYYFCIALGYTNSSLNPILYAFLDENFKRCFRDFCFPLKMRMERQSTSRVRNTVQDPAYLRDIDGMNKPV
PROCEDURE_TEXT: cell-based
EXPERIMENTAL_CONTEXT: CHO, read-out: cAMP Emax
EXPERIMENTAL_READOUT: Emax (%)
State just the number; it will be interpreted in %.

In the examples that follow, each entry is paired with its recorded Emax.
[[record]]
compound = "CON=C1CC(c2ccccc2)CC2C1CCC1(C)C(C(=O)OC)CC(OC(C)=O)C(=O)C21 (stereo not drawn)"
units_label = "%"
measured_number = 100

[[record]]
compound = "COC(=O)[C@@H]1C[C@H](OC(C)=O)C(=O)[C@@H]2[C@H]3C[C@@H](c4ccoc4)CC(=O)[C@@H]3CC[C@]21C"
units_label = "%"
measured_number = 96

[[record]]
compound = "COC(=O)[C@@H]1C[C@H](OC(C)=O)C(=O)[C@@H]2[C@H]3C[C@@H](c4c[nH]c5ccccc45)CC(=O)[C@@H]3CC[C@]21C"
units_label = "%"
measured_number = 92

[[record]]
compound = "COC(=O)[C@@H]1C[C@H](OC(C)=O)C(=O)[C@@H]2[C@H]3C[C@@H](c4ccc(C)cc4)CC(=O)[C@@H]3CC[C@]21C"
units_label = "%"
measured_number = 93

[[record]]
compound = "COC(=O)[C@@H]1C[C@H](OC(C)=O)C(=O)[C@@H]2[C@H]3CC=CC(=O)[C@@H]3CC[C@]21C [17a]"
units_label = "%"
measured_number = 96


Kindly review the next compound as well.
Inquiry: Which measured Emax value corresponds to COC(=O)[C@@H]1C[C@H](OC(C)=O)C(=O)[C@@H]2[C@H]3C[C@@H](c4ccc(Cl)cc4)CC(=O)[C@@H]3CC[C@]21C ?
Reply text: 103
